Target: recombinant human MMP-7 (Homo sapiens, UniProt P09237)
Sequence (P09237 95-267): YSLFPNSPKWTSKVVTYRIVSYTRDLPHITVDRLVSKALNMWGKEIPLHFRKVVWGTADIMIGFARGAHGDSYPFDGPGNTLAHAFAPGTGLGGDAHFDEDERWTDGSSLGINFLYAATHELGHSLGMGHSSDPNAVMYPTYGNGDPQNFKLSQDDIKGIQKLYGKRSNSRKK
Assay: MMP selectivity assay, MMP-7
Conditions: Table 2 selectivity profile
pIC50: −log10 of the molar value.
Provide the recorded pIC50 for the entries that follow.

Query (molecule): Cc1cc(COc2ccc(Sc3cnn(C)c3C3NC(=O)NC3=O)cc2)ccn1 (stereo not shown) ; field requested: pIC50
< 5.00

Query (molecule): Cc1cc(COc2ccc(Sc3ccsc3C3NC(=O)NC3=O)cc2)ccn1 (stereo not shown) ; field requested: pIC50
5.00 to 6.00

Query (molecule): O=C1NC(=O)C(c2cnccc2Sc2ccc(OCc3cccc(CO)c3)cc2)N1 (stereo not shown) ; field requested: pIC50
< 5.00

Query (molecule): O=C1NC(=O)C(c2sccc2Sc2ccc(OCc3cccc(CO)c3)cc2)N1 (stereo not shown) ; field requested: pIC50
< 5.00

Query (molecule): O=C1NC(=O)C(c2sccc2Sc2ccc(OCc3ccccc3CO)cc2)N1 (stereo not shown) ; field requested: pIC50
< 5.00

Query (molecule): O=C1NC(=O)C(c2cnccc2Sc2ccc(OCc3cccc(O)c3)cc2)N1 (stereo not shown) ; field requested: pIC50
< 5.00

Query (molecule): Cc1cc(COc2ccc(Sc3ccncc3C3NC(=O)NC3=O)c(Cl)c2)ccn1 (stereo not shown) ; field requested: pIC50
5.00 to 6.00
